For each entry below, report its GI50 value.
target: ABL T315I BAF3 cells (Homo sapiens, UniProt P00519, T315I, cells depend on it); construct: ABL T315I BAF3; fused on or other part: P11274 (Breakpoint cluster region protein); assay: 96-well XTT cell survival assay, BaF3 ABL T315I; type: cell-based; settings: 72 hours, read-out: CELL BIO ABL T315I BAF3 XTT (IC50)

Memo: CN(C)C(=O)C(O)c1cncc(-c2cnc3[nH]cc(-c4ccccc4F)c3c2Cl)c1 (centres unmarked) , reported GI50: 100 to 1000 nM

Memo: CN(C)C(=O)c1cncc(-c2cnc3[nH]cc(-c4cccc(F)c4F)c3c2Cl)n1 , reported GI50: 100 to 1000 nM

Memo: COc1ccccc1-c1c[nH]c2ncc(-c3cncc(C(O)C(=O)N(C)C)c3)c(C(F)(F)F)c12 (centres unmarked) , reported GI50: 10 to 100 nM

Memo: COc1cc(Cl)c(F)cc1-c1c[nH]c2ncc(-c3cnc(N)c(C(=O)N(C)C)c3)cc12 , reported GI50: 10 to 100 nM

Memo: CCN(C)C(=O)c1cc(-c2cnc3[nH]cc(-c4cccc(F)c4)c3c2Cl)cnc1N , reported GI50: 10 to 100 nM

----------
target: ABL P210WT BAF3 cells (Homo sapiens); construct: ABL P210WT BAF3; fused on or other part: P11274 (Breakpoint cluster region protein); experiment: 96-well XTT cell survival assay, BaF3 ABL P210WT; type: cell-based; conditions: ABL P210 WT, 72 hours, read-out: CELL BIO ABL P210WT BAF3 XTT (IC50)
Measurement Type: GI50

Memo: CN(C)C(=O)c1cc(-c2cnc3[nH]cc(-c4ccccc4F)c3c2Cl)cnc1N , reported GI50: 100 to 1000 nM

Memo: OC(c1cccc(-c2cnc3[nH]cc(-c4ccc(F)cc4)c3c2Cl)c1)c1ncco1 (stereo not shown) , reported GI50: > 1000 nM

Memo: CN(C)C(=O)c1cncc(-c2cnc3[nH]cc(-c4cccc(F)c4F)c3c2Cl)n1 , reported GI50: 100 to 1000 nM

Memo: CN(C)C(=O)c1cncc(-c2cnc3[nH]cc(-c4ccc(F)cc4)c3c2Cl)n1 , reported GI50: 100 to 1000 nM

Memo: CN(C)C(=O)c1cncc(-c2cnc3[nH]cc(-c4ccc(F)cc4)c3c2Cl)c1 , reported GI50: 100 to 1000 nM

Memo: COc1ccccc1-c1c[nH]c2ncc(-c3cncc(C(O)C(=O)N(C)C)c3)c(C(F)(F)F)c12 (stereo not shown) , reported GI50: 10 to 100 nM

Memo: CN(C)C(=O)C(O)c1cncc(-c2cnc3[nH]cc(-c4ccccc4)c3c2Cl)c1 (stereo not shown) , reported GI50: 100 to 1000 nM

Memo: CN(C)C(=O)C(O)c1cc(-c2cnc3[nH]cc(-c4ccccc4F)c3c2Cl)cnc1N (stereo not shown) , reported GI50: 100 to 1000 nM

Memo: CN(C)C(=O)c1cncc(-c2cnc3[nH]cc(-c4ccccc4Cl)c3c2Cl)c1 , reported GI50: 100 to 1000 nM

Memo: COc1ccccc1-c1c[nH]c2ncc(Br)c(SC)c12 , reported GI50: > 1000 nM

----------
For each entry below, report its GI50 value.
molecular target: ABL T315I BAF3 cells (Homo sapiens, UniProt P00519, T315I, cells depend on it); construct: ABL T315I BAF3; fused on or other part: P11274 (Breakpoint cluster region protein); assay: 96-well XTT cell survival assay, BaF3 ABL T315I; format: cell-based; conditions: 72 hours, read-out: CELL BIO ABL T315I BAF3 XTT (IC50)

Memo: CN(C)C(=O)c1cncc(-c2cnc3[nH]cc(-c4ccccc4)c3c2Cl)c1 , reported GI50: > 1 µM

Memo: CN(C)C(=O)Cc1cncc(-c2cnc3[nH]cc(-c4cccc(F)c4F)c3c2Cl)c1 , reported GI50: 0.1 to 1 µM

Memo: COc1ccc(F)cc1-c1c[nH]c2ncc(-c3cnc(N)c(C(=O)N(C)C)c3)c(Cl)c12 , reported GI50: < 0.01 µM

Memo: COc1ccccc1-c1c[nH]c2ncc(Br)c(N(C)CCO)c12 , reported GI50: > 1 µM

Memo: Nc1ncc(-c2cnc3[nH]cc(-c4cccc(F)c4)c3c2Cl)cc1C(=O)N1CC(O)C1 , reported GI50: 0.1 to 1 µM
